System: Norovirus GII.6 VLP, capsid protein VP1 (Norovirus GII.6)
runDescription: ELONA
runConditions: 1 uM aptamer, RT
readoutName: binding signal
Your reply should be a number followed by the unit it is expressed in.

Examples from the recorded data:
>>> observedvalue("AGTATACGTATTACCTGCAGCCCATGTTTTGTAGGTGTAATAGGTCATGTTAGGGTTTCTGCGATATCTCGGAGATCTTGC [SMV-21]")
"3 T/N ratio"
>>> observedvalue("AGTATACGTATTACCTGCAGCTGACCGAGTGTCTGGTCATTTTCGATGTCTGTTGTTAGGCCGATATCTCGGAGATCTTGC [SMV-26]")
"2.8 T/N ratio"

Exercise: Look up and state reported binding signal for AGTATACGTATTACCTGCAGCCATCTGTGTGAAGACTATATGGCGCTCACATATTTCTTTCCGATATCTCGGAGATCTTGC [SMV-25]
Solution: 7.3 T/N ratio

Exercise: Look up and state reported binding signal for AGTATACGTATTACCTGCAGCCACCAGTGTGTTGAGGTTTGAGCACACTGATAGAGTGTCACGATATCTCGGAGATCTTGC [SMV-19]
Solution: 1.8 T/N ratio

---

System: Norovirus GI.6 VLP, capsid protein VP1 (Norovirus GI.6)
runDescription: ELONA
runConditions: 1 uM aptamer, RT
readoutName: binding signal
Your reply should be a number followed by the unit it is expressed in.

Exercise: Please tell me the measured binding signal for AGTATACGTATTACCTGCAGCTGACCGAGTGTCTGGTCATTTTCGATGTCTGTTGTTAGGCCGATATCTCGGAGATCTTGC [SMV-26] ; system: Norovirus GI.6 VLP, capsid protein VP1 (Norovirus GI.6).
Solution: 1.5 T/N ratio

Exercise: Please tell me the measured binding signal for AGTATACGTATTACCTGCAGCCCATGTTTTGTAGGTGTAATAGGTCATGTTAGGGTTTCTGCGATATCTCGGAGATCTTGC [SMV-21] ; system: Norovirus GI.6 VLP, capsid protein VP1 (Norovirus GI.6).
Solution: 3.8 T/N ratio

Exercise: Please tell me the measured binding signal for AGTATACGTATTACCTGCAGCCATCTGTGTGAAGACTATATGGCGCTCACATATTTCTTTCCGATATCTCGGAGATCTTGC [SMV-25] ; system: Norovirus GI.6 VLP, capsid protein VP1 (Norovirus GI.6).
Solution: 2.4 T/N ratio

Exercise: Please tell me the measured binding signal for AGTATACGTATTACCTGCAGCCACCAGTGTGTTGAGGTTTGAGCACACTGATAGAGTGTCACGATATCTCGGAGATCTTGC [SMV-19] ; system: Norovirus GI.6 VLP, capsid protein VP1 (Norovirus GI.6).
Solution: 3.7 T/N ratio

---

Test system: Norovirus GII.1 VLP, capsid protein VP1 (Norovirus GII.1)
runDescription: ELONA
runConditions: 1 uM aptamer, RT
Listed here are sequences together with their documented binding signal.
Kindly answer with a numeric value in T/N ratio, unit omitted.

>>> observedvalue("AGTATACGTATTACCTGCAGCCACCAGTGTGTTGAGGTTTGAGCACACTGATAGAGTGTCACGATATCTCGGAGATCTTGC [SMV-19]")
7.1

Exercise: Look up and state reported binding signal for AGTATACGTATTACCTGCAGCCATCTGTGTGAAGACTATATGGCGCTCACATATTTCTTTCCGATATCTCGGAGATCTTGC [SMV-25]
Solution: 9.4

Exercise: Look up and state reported binding signal for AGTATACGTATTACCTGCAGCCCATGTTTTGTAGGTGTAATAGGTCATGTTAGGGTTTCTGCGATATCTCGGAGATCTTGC [SMV-21]
Solution: 8.6

Exercise: Look up and state reported binding signal for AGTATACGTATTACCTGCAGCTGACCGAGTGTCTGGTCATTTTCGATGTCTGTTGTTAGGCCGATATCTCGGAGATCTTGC [SMV-26]
Solution: 2.1
